- Test system: Aspergillus flavus
- experiment description: Antifungal activity against Aspergillus flavus ATCC MYA-3631 measured after 48 hrs by CLSI M38-A2 protocol based method
- Assay type: functional
- particulars: ATCC MYA-3631, 48 h
So I've got a bunch of compounds here, and I need their MIC values.
# output: bare number, implied unit µg/mL

Which value of MIC has been reported for Fc1ccc(N/N=C/c2ccc(-c3cccc(/C=N/Nc4ccc(F)cc4)c3)cc2)cc1 in the records?
15.6

One more compound: Fc1ccccc1N/N=C/c1ccc(-c2cccc(/C=N/Nc3ccccc3F)c2)cc1
3.9

###

- experiment description: Selectivity index, ratio of compound concentration showing <20 to <25% hemolysis in mouse RBC to MIC for Aspergillus terreus ATCC MYA-3633
- Assay type: toxicity
- particulars: red blood cells (erythrocytes), read-out: Selectivity Index
endpoint label: selectivity ratio

Would you mind telling me what selectivity ratio value was observed for C(=N\Nc1ccccc1)/c1ccc(-c2ccc(/C=N/Nc3ccccc3)cc2)cc1 ?
1 to 32

Same question for C(=N\Nc1ccccc1)/c1ccc(-c2cccc(/C=N/Nc3ccccc3)c2)cc1 please.
1 to 32
